Biological target: HLA-B*08:01
Assay: IEDB peptide-MHC binding, purified MHC/direct/fluorescence; filed as Kd, often an IC50 or EC50 that approximates it; bounds were set here for any values at or beyond the usual limits of such assays
Conditions: source organism: Mycobacterium tuberculosis str. Haarlem
pKd: −log10 of the molar value.
endpoint-label: pKd

Return reported pKd; argument: `ALFDRPAFK`
≤ 4.70

###

Target: HLA-A*23:01
Test: IEDB peptide-MHC binding, purified MHC/direct/fluorescence; filed as Kd, often an IC50 or EC50 that approximates it; bounds were set here for any values at or beyond the usual limits of such assays
Settings: source organism: Orthohantavirus tulaense
endpoint-label: Kd

Return reported Kd; argument: `SLMSRVVYK`
≥ 20 µM
